- tested-on: Aldehyde dehydrogenase 1A1 (Homo sapiens)
- experimental-details: qHTS Assay for Inhibitors of Aldehyde Dehydrogenase 1 (ALDH1A1)
- condition-details: Purified ALDH1A1, NADH fluorescence, propionaldehyde substrate; series mostly up to 75.3 µM
The whole screen tested about 220,000 compounds, of which about 16,000 (7.3%) were called active. Roughly 25% stayed inconclusive and do not appear here. The call rests on the fitted dose curve; in most records, active means well fitted inhibition curve with a large enough effect (not every such curve was filed as active); inconclusive means small, poorly fitted or top-dose-only effect, or another doubt; inactive means no such curve, though single readings can be large or run the other way. The sample as a whole holds a higher share of actives than the screen did.
Valid outcomes are listed here; reply with one: active, inactive

Illustrative cases are given below, each with its answer.
Incoming: How was CCOC(=O)C(C)Sc1nnc(CSc2nc3nc(C)cc(C)n3n2)o1 (stereo unspecified) classified in this test?
Outgoing: inactive

Incoming: How was CCOC(=O)C(=Cc1ccccc1OC)C(=O)OCC classified in this test?
Outgoing: inactive

Incoming: How was O=C(COc1ccc(Cl)cc1)NCc1nnc(SCC(=O)NCC2CCCO2)o1 (stereo unspecified) classified in this test?
Outgoing: inactive

Incoming: How was CCn1c(SCC(=O)c2ccc(Cl)s2)nnc1-c1cccs1 classified in this test?
Outgoing: inactive

Incoming: How was Cc1ccc(-n2c(Cc3cccs3)nnc2SCC(=O)OC(C)C)cc1 classified in this test?
Outgoing: active

Incoming: How was COc1ccc(-c2nn3c(-c4ccccc4)nnc3s2)cc1OC classified in this test?
Outgoing: active

Incoming: How was CCCC1(C(=O)OC)NC(c2ccco2)C2C(=O)N(C)C(=O)C21 (stereo unspecified) classified in this test?
Outgoing: inactive

Incoming: How was COc1cc(-c2nn3c(-c4cccc(C)c4)nnc3s2)cc(OC)c1OC classified in this test?
Outgoing: inactive

Others:
Incoming: How was CCOC(=O)CSc1nnc(CNC(=O)c2cccs2)n1-c1ccccc1 classified in this test?
Outgoing: inactive

Incoming: How was CCc1ccc(Nc2nnc(SCC(=O)c3ccc4c(c3)NC(=O)CO4)s2)cc1 classified in this test?
Outgoing: active

Incoming: How was Cc1cccc(NC(=O)c2nnn(-c3cccc(C(F)(F)F)c3)c2N)c1 classified in this test?
Outgoing: inactive
